Ref: patent US8481750B2

Answer each item with its documented IC50.
Target: LFA-1 binding to ICAM-1 (Homo sapiens, UniProt P05107+P20701)
Sequence (P20701 26-1170): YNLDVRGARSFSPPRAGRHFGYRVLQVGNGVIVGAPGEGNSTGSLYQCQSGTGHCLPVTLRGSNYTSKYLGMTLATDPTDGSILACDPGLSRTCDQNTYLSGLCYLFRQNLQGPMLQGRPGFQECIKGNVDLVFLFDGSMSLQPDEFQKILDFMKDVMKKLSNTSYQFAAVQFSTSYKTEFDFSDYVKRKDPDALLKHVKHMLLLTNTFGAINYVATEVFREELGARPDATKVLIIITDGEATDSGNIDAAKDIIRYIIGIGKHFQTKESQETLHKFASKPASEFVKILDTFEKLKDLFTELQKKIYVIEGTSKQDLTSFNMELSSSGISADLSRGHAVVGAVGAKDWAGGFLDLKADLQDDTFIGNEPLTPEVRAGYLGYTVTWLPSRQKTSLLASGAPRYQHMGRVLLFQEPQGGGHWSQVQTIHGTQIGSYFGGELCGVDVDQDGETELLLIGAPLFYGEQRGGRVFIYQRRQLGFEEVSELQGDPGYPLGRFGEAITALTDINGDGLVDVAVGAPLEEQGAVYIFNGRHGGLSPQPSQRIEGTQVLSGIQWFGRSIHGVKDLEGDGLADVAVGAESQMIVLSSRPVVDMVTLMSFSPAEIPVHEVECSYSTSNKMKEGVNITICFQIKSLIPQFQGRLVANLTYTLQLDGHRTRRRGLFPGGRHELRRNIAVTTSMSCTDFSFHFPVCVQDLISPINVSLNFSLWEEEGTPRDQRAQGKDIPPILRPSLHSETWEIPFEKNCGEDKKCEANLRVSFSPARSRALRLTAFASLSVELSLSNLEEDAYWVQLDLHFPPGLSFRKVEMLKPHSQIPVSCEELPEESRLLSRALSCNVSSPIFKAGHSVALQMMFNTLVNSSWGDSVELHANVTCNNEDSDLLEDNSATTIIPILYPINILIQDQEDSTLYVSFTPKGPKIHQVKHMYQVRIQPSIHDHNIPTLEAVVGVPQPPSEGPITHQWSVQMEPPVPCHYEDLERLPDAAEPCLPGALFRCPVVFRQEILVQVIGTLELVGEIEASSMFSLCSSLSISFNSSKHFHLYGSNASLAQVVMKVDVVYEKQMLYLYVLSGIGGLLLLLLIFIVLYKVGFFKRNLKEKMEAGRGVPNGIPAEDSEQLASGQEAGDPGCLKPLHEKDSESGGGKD
Sequence (P05107 23-769): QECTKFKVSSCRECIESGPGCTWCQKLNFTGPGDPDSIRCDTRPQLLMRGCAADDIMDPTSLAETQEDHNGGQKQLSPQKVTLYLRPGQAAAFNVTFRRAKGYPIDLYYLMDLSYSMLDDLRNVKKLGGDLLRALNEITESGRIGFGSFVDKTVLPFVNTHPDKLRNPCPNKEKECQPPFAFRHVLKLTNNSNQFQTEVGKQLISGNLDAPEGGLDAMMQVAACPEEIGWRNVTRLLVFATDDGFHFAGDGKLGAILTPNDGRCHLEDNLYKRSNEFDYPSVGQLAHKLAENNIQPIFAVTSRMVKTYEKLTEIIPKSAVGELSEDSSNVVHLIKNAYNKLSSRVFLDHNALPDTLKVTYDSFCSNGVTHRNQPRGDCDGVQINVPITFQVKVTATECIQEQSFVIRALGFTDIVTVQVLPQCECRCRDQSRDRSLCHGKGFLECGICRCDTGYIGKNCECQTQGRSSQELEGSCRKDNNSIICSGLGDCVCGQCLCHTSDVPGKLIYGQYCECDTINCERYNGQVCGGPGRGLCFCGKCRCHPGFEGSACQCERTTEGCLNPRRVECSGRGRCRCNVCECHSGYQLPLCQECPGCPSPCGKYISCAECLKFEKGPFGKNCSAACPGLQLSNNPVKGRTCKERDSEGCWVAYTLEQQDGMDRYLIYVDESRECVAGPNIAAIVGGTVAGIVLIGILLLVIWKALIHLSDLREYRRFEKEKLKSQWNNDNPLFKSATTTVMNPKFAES
Test: Inhibition of LFA-1 binding to ICAM-1 (LFA-1/Biotin-sICAM-1 AlphaScreen molecular assay)
Details: highest compound concentration 1 μM in 1% DMSO, 37° C., 90 minutes
Form entry: value (nM) — number only.

Enquiry: # get_value(readout= IC50, system= LFA-1 binding to ICAM-1 (Homo sapiens, UniProt P05107+P20701)) for `CN(CCO)C(=O)c1ccc(C2(NC(=O)C3(NC(=O)c4cnc5n4[C@](C)(Cc4ccc(C#N)cc4)C(=O)N5c4cc(Cl)cc(Cl)c4)CC3)CC2)nc1`
Return: 1

Enquiry: Would you mind doing `C[C@@]1(Cc2ccc(C#N)cc2)C(=O)N(c2cc(Cl)cc(Cl)c2)c2ncc(C(=O)NC3(C(=O)NC4(c5cc(C(=O)N6CC[C@@H](O)C6)ccn5)CC4)CC3)n21` as well?
Return: 3.4

Enquiry: Same question, `CNC(=O)c1ccnc(C2(NC(=O)C3(NC(=O)c4cnc5n4[C@](C)(Cc4ccc(C#N)cc4)C(=O)N5c4cc(Cl)cc(Cl)c4)CC3)CC2)c1` this time
Return: 0.67

Enquiry: Now the same for `C[C@@H](O)CNC(=O)c1ccc(C2(NC(=O)C3(NC(=O)c4cnc5n4[C@](C)(Cc4ccc(C#N)cc4)C(=O)N5c4cc(Cl)cc(Cl)c4)CC3)CC2)nc1`
Return: 0.47

Enquiry: Here is the next compound: C[C@@]1(Cc2ccc(C#N)cc2)C(=O)N(c2cc(Cl)cc(Cl)c2)c2ncc(C(=O)NC3(C(=O)NC4(c5cc(C(=O)N6CCCCC6CO)ccn5)CC4)CC3)n21 (some centres unmarked)
Return: 0.88

* * *

Molecular target: LFA-1 binding to ICAM-1 (Homo sapiens, UniProt P05107+P20701)
Assay: Inhibition of LFA-1 binding to ICAM-1 (LFA-1/Biotin-sICAM-1 AlphaScreen molecular assay)
Conditions: highest compound concentration 1 μM in 1% DMSO, 37° C., 90 minutes
IC50 strictly less than 1 nM = yes (1). Otherwise no (0).

Enquiry: Below 1 nM on IC50? Entry `C[C@@]1(Cc2ccc(C#N)cc2)C(=O)N(c2cc(Cl)cc(Cl)c2)c2ncc(C(=O)NC3(C(=O)NC4(c5ccc(C(=O)NCCC(N)=O)cn5)CC4)CC3)n21`
Return: yes (1)

Enquiry: Further, for `CC(=O)N1CCN(C(=O)c2ccnc(C3(NC(=O)C4(NC(=O)c5cnc6n5[C@](C)(Cc5ccc(C#N)cc5)C(=O)N6c5cc(Cl)cc(Cl)c5)CC4)CC3)c2)CC1` ?
Return: no (0)

Enquiry: How about this compound: C[C@@]1(Cc2ccc(C#N)cc2)C(=O)N(c2cc(Cl)cc(Cl)c2)c2ncc(C(=O)NC3(C(=O)NC4(c5ccc(C(=O)NCC(O)CO)cn5)CC4)CC3)n21 (stereo partly drawn)
Return: no (0)

Enquiry: Thanks! And `C[C@@]1(Cc2ccc(C#N)cc2)C(=O)N(c2cc(Cl)cc(Cl)c2)c2ncc(C(=O)NC3(C(=O)NC4(c5cc(C(=O)N6CCCC6)ccn5)CC4)CC3)n21` ?
Return: yes (1)

Enquiry: Same for CC(CO)NC(=O)c1cccc(C2(NC(=O)C3(NC(=O)c4cnc5n4[C@](C)(Cc4ccc(C#N)cc4)C(=O)N5c4cc(Cl)cc(Cl)c4)CC3)CC2)n1 (stereo partly drawn)
Return: yes (1)

Enquiry: Another: C[C@@]1(Cc2ccc(C#N)cc2)C(=O)N(c2cc(Cl)cc(Cl)c2)c2ncc(C(=O)NC3(C(=O)NC4(c5cc(C(=O)N6CCCC(C(N)=O)C6)ccn5)CC4)CC3)n21 (stereo partly drawn)
Return: yes (1)

Enquiry: Now consider `C[C@@]1(Cc2ccc(C#N)cc2)C(=O)N(c2cc(Cl)cc(Cl)c2)c2ncc(C(=O)NC3(C(=O)NC4(c5ccc(C(=O)N6CCOCC6)cn5)CC4)CC3)n21` and answer again.
Return: yes (1)

Enquiry: Repeat for the following compound: `C[C@@]1(Cc2ccc(C#N)cc2)C(=O)N(c2cc(Cl)cc(Cl)c2)c2ncc(C(=O)NC3(C(=O)NC4(c5ccc(C(=O)NCc6ccncc6)cn5)CC4)CC3)n21`
Return: yes (1)

Enquiry: Same for `C[C@@]1(Cc2ccc(C#N)cc2)C(=O)N(c2cc(Cl)cc(Cl)c2)c2ncc(C(=O)NC3(C(=O)NC4(c5ccc(C(=O)N6CCC[C@H]6C(N)=O)cn5)CC4)CC3)n21`
Return: no (0)

Enquiry: Another compound to check: `C[C@@]1(Cc2ccc(C#N)cc2)C(=O)N(c2cc(Cl)cc(Cl)c2)c2ncc(C(=O)NC3(C(=O)NC4(c5ccc(C(=O)NCCc6cccnc6)cn5)CC4)CC3)n21`
Return: yes (1)

Enquiry: Now this one: `C[C@@]1(Cc2ccc(C#N)cc2)C(=O)N(c2cc(Cl)cc(Cl)c2)c2ncc(C(=O)NC3(C(=O)NC4(c5ccc(C(=O)N6CCCC6)cn5)CC4)CC3)n21`
Return: yes (1)

Enquiry: // repeat for `COCCNC(=O)c1cccc(C2(NC(=O)C3(NC(=O)c4cnc5n4[C@](C)(Cc4ccc(C#N)cc4)C(=O)N5c4cc(Cl)cc(Cl)c4)CC3)CC2)n1` and report
Return: no (0)

Enquiry: Field entry: `C[C@@]1(Cc2ccc(C#N)cc2)C(=O)N(c2cc(Cl)cc(Cl)c2)c2ncc(C(=O)NC3(C(=O)NC4(c5cc(C(=O)NCc6ccccn6)ccn5)CC4)CC3)n21`
Return: yes (1)

Enquiry: Consider next the compound `C[C@@]1(Cc2ccc(C#N)cc2)C(=O)N(c2cc(Cl)cc(Cl)c2)c2ncc(C(=O)NC3(C(=O)NC4(c5ccc(C(=O)NCc6ccco6)cn5)CC4)CC3)n21` in the same way.
Return: yes (1)

Enquiry: Please answer likewise for `CN(C)C(=O)c1ccc(C2(NC(=O)C3(NC(=O)c4cnc5n4[C@](C)(Cc4ccc(C#N)cc4)C(=O)N5c4cc(Cl)cc(Cl)c4)CC3)CC2)nc1`
Return: no (0)

Enquiry: And what about the compound CC(=O)N(C)C1CCN(C(=O)c2ccc(C3(NC(=O)C4(NC(=O)c5cnc6n5[C@](C)(Cc5ccc(C#N)cc5)C(=O)N6c5cc(Cl)cc(Cl)c5)CC4)CC3)nc2)C1 (stereo partly drawn) ?
Return: yes (1)

Enquiry: // query: `C[C@@H](NC(=O)c1cccc(C2(NC(=O)C3(NC(=O)c4cnc5n4[C@](C)(Cc4ccc(C#N)cc4)C(=O)N5c4cc(Cl)cc(Cl)c4)CC3)CC2)n1)c1ccccc1`
Return: no (0)

Enquiry: Same question, `C[C@@]1(Cc2ccc(C#N)cc2)C(=O)N(c2cc(Cl)cc(Cl)c2)c2ncc(C(=O)NC3(C(=O)NC4(c5cccc(C(=O)N6CCC6)n5)CC4)CC3)n21` this time
Return: no (0)

Enquiry: Then `CN1CCN(C(=O)c2ccc(C3(NC(=O)C4(NC(=O)c5cnc6n5[C@](C)(Cc5ccc(C#N)cc5)C(=O)N6c5cc(Cl)cc(Cl)c5)CC4)CC3)nc2)CC1` ?
Return: no (0)

Enquiry: Another compound to check: CC(O)CNC(=O)c1cccc(C2(NC(=O)C3(NC(=O)c4cnc5n4[C@](C)(Cc4ccc(C#N)cc4)C(=O)N5c4cc(Cl)cc(Cl)c4)CC3)CC2)n1 (stereo partly drawn)
Return: no (0)

* * *

Target: LFA-1 binding to ICAM-1 (Homo sapiens, UniProt P05107+P20701)
Test: Inhibition of LFA-1 binding to ICAM-1 (LFA-1/Biotin-sICAM-1 AlphaScreen molecular assay)
Settings: highest compound concentration 1 μM in 1% DMSO, 37° C., 90 minutes
Can you tell me log10 of IC50 for the items I'm about to list?
Please interpret these as log10 of IC50 where IC50 is in nM.

Enquiry: Entry C[C@@]1(Cc2ccc(C#N)cc2)C(=O)N(c2cc(Cl)cc(Cl)c2)c2ncc(C(=O)NC3(C(=O)NC4(c5cccc(C(=O)NCc6cccnc6)n5)CC4)CC3)n21 [compound 162] : reported log10 of IC50 = ?
Return: 0.36

Enquiry: Please give the result for C[C@@]1(Cc2ccc(C#N)cc2)C(=O)N(c2cc(Cl)cc(Cl)c2)c2ncc(C(=O)NC3(C(=O)NC4(c5cccc(C(=O)N6CC[C@H](O)C6)n5)CC4)CC3)n21 [compound 143] too.
Return: -0.28

Enquiry: Then what about the compound C[C@@]1(Cc2ccc(C#N)cc2)C(=O)N(c2cc(Cl)cc(Cl)c2)c2ncc(C(=O)NC3(C(=O)NC4(c5ccc(C(=O)NCCN)cn5)CC4)CC3)n21 [compound 78] ?
Return: -0.17

Enquiry: And for C[C@@]1(Cc2ccc(C#N)cc2)C(=O)N(c2cc(Cl)cc(Cl)c2)c2ncc(C(=O)NC3(C(=O)NC4(c5cccc(C(=O)N6CCCC(CO)C6)n5)CC4)CC3)n21 (stereo partly drawn) [compound 161] ?
Return: -0.12

Enquiry: Next entry: C[C@@]1(Cc2ccc(C#N)cc2)C(=O)N(c2cc(Cl)cc(Cl)c2)c2ncc(C(=O)NC3(C(=O)NC4(c5cccc(C(=O)N6CCC[C@@H]6C(N)=O)n5)CC4)CC3)n21 [compound 67]
Return: 0.41

Enquiry: Now this one: CC(NC(=O)c1ccc(C2(NC(=O)C3(NC(=O)c4cnc5n4[C@](C)(Cc4ccc(C#N)cc4)C(=O)N5c4cc(Cl)cc(Cl)c4)CC3)CC2)nc1)c1ccncc1 (stereo partly drawn) [compound 46]
Return: -0.11

Enquiry: What do you get for C[C@@]1(Cc2ccc(C#N)cc2)C(=O)N(c2cc(Cl)cc(Cl)c2)c2ncc(C(=O)NC3(C(=O)NC4(c5cccc(C(=O)N6CC[C@@H](O)C6)n5)CC4)CC3)n21 [compound 48] ?
Return: 0.38

Enquiry: Another: C[C@@]1(Cc2ccc(C#N)cc2)C(=O)N(c2cc(Cl)cc(Cl)c2)c2ncc(C(=O)NC3(C(=O)NC4(c5cc(C(=O)N6CC[C@H](O)C6)ccn5)CC4)CC3)n21 [compound 103]
Return: -0.12

Enquiry: Next record, please: C[C@H](NC(=O)c1ccnc(C2(NC(=O)C3(NC(=O)c4cnc5n4[C@](C)(Cc4ccc(C#N)cc4)C(=O)N5c4cc(Cl)cc(Cl)c4)CC3)CC2)c1)c1ccccc1 [compound 10]
Return: 0.79

Enquiry: # iterate: CC(O)CNC(=O)c1ccnc(C2(NC(=O)C3(NC(=O)c4cnc5n4[C@](C)(Cc4ccc(C#N)cc4)C(=O)N5c4cc(Cl)cc(Cl)c4)CC3)CC2)c1 (stereo partly drawn) [compound 146]
Return: -0.01

Enquiry: Param item: C[C@@H](NC(=O)c1ccnc(C2(NC(=O)C3(NC(=O)c4cnc5n4[C@](C)(Cc4ccc(C#N)cc4)C(=O)N5c4cc(Cl)cc(Cl)c4)CC3)CC2)c1)c1ccccc1 [compound 53]
Return: 0.38

Enquiry: Let us now turn to C[C@@]1(Cc2ccc(C#N)cc2)C(=O)N(c2cc(Cl)cc(Cl)c2)c2ncc(C(=O)NC3(C(=O)NC4(c5ccc(C(=O)N6CCN(S(C)(=O)=O)CC6)cn5)CC4)CC3)n21 [compound 153]
Return: 0.18

Enquiry: Ok, now C[C@@]1(Cc2ccc(C#N)cc2)C(=O)N(c2cc(Cl)cc(Cl)c2)c2ncc(C(=O)NC3(C(=O)NC4(c5ccc(C(=O)NCC6CC6)cn5)CC4)CC3)n21 [compound 13]
Return: -0.36

Enquiry: What do we get for CC(NC(=O)c1cccc(C2(NC(=O)C3(NC(=O)c4cnc5n4[C@](C)(Cc4ccc(C#N)cc4)C(=O)N5c4cc(Cl)cc(Cl)c4)CC3)CC2)n1)c1cccnc1 (stereo partly drawn) [compound 47] ?
Return: 0.59

Enquiry: Next record, please: C[C@@]1(Cc2ccc(C#N)cc2)C(=O)N(c2cc(Cl)cc(Cl)c2)c2ncc(C(=O)NC3(C(=O)NC4(c5ccc(C(=O)NCc6ccccn6)cn5)CC4)CC3)n21 [compound 36]
Return: -0.60

Enquiry: Try this compound too: C[C@@]1(Cc2ccc(C#N)cc2)C(=O)N(c2cc(Cl)cc(Cl)c2)c2ncc(C(=O)NC3(C(=O)NC4(c5cccc(C(=O)NCCN)n5)CC4)CC3)n21 [compound 40]
Return: 0.11

Enquiry: Now consider C[C@H](CO)NC(=O)c1ccnc(C2(NC(=O)C3(NC(=O)c4cnc5n4[C@](C)(Cc4ccc(C#N)cc4)C(=O)N5c4cc(Cl)cc(Cl)c4)CC3)CC2)c1 [compound 49] .
Return: -0.25

Enquiry: Next compound: C[C@@]1(Cc2ccc(C#N)cc2)C(=O)N(c2cc(Cl)cc(Cl)c2)c2ncc(C(=O)NC3(C(=O)NC4(c5cccc(C(=O)NCc6ccccn6)n5)CC4)CC3)n21 [compound 92]
Return: 0.11

Enquiry: Moving on to the next compound: C[C@H](O)CNC(=O)c1ccc(C2(NC(=O)C3(NC(=O)c4cnc5n4[C@](C)(Cc4ccc(C#N)cc4)C(=O)N5c4cc(Cl)cc(Cl)c4)CC3)CC2)nc1 [compound 99]
Return: -0.28

Enquiry: // repeat for CC(CO)NC(=O)c1ccnc(C2(NC(=O)C3(NC(=O)c4cnc5n4[C@](C)(Cc4ccc(C#N)cc4)C(=O)N5c4cc(Cl)cc(Cl)c4)CC3)CC2)c1 (stereo partly drawn) [compound 120] and report
Return: -0.12

Enquiry: Subsequent entry: CN(C)CCNC(=O)c1cccc(C2(NC(=O)C3(NC(=O)c4cnc5n4[C@](C)(Cc4ccc(C#N)cc4)C(=O)N5c4cc(Cl)cc(Cl)c4)CC3)CC2)n1 [compound 63]
Return: 0.23
